System: PTP1B mRNA
Test: Dose response for human PTP1B in HuVEC cells, Primer Probe Set 198 (Example 25, Table 86)
Type: cell-based
Conditions: PPS 198, 3.33 nM
Strand notation (5' to 3'): a small letter for the sugar, then the base; units joined by * are phosphorothioate-linked, units joined directly phosphodiester-linked; [ ] holds rarer units or linkages, { } end groups; capitals alone tell only the bases. e = 2'-O-(2-methoxyethyl) (MOE); [5mC] = 5-methylcytosine; d = 2'-deoxy (DNA)
MEASURED_ENDPOINT: % Inhibition of PTP1B mRNA (%)
Dear colleague, please return just the value in %, with no unit written.

% Inhibition of PTP1B mRNA reported for this substance 398112 (antisense e[5mC]*eA*dG*d[5mC]*d[5mC]*dT*dG*dG*d[5mC]*dA*d[5mC]*d[5mC]*eT*eA) [compound 398112] : 10

% Inhibition of PTP1B mRNA reported for this substance 398105 (antisense eT*eG*d[5mC]*dA*d[5mC]*dA*dG*dG*d[5mC]*dA*dG*dG*eT*eT) [compound 398105] : 25

% Inhibition of PTP1B mRNA reported for this substance 399301 (antisense eG*eT*dG*dT*dG*d[5mC]*dA*d[5mC]*dA*d[5mC]*dA*dG*e[5mC]*eT) [compound 399301] : 63

---

System: mouse SGLT2 mRNA
Assay: Mouse SGLT2 mRNA levels in kidney, additional 1-10-1 and 2-8-2 MOE gapmers, Balb/c mice (Example 15, Table 68)
Format: in vivo
Conditions: 0.5 umol/kg i.p. twice per week for three weeks
Strand notation (5' to 3'): a small letter for the sugar, then the base; units joined by * are phosphorothioate-linked, units joined directly phosphodiester-linked; [ ] holds rarer units or linkages, { } end groups; capitals alone tell only the bases. e = 2'-O-(2-methoxyethyl) (MOE); [5mC] = 5-methylcytosine; d = 2'-deoxy (DNA)
Criterion met means recorded % change in SGLT2 expression relative to saline is -70% or above; Criterion not met means it is below -70%.

Can ISIS 379692: SGLT2; 1-10-1 MOE gapmer (antisense eT*dG*dT*dT*d[5mC]*d[5mC]*dA*dG*d[5mC]*d[5mC]*d[5mC]*eA) be said to have % change in SGLT2 expression relative to saline at or above -70%?
Criterion not met

Can ISIS 388625: SGLT2; TGTTCCAGCCCA 2-8-2 MOE Gapmer (antisense eT*eG*dT*dT*d[5mC]*d[5mC]*dA*dG*d[5mC]*d[5mC]*e[5mC]*eA) be said to have % change in SGLT2 expression relative to saline at or above -70%?
Criterion not met

Can ISIS 388627 (antisense eG*e[5mC]*dA*d[5mC]*dA*d[5mC]*dA*dG*d[5mC]*dT*eG*e[5mC]) be said to have % change in SGLT2 expression relative to saline at or above -70%?
Criterion met

Can ISIS 388626: SGLT2; GGCATGAGCTTC 2-8-2 MOE (antisense eG*eG*d[5mC]*dA*dT*dG*dA*dG*d[5mC]*dT*eT*e[5mC]) be said to have % change in SGLT2 expression relative to saline at or above -70%?
Criterion not met

Can ISIS 379699: SGLT2; GGCATGAGCTTC 1-10-1 MOE (antisense eG*dG*d[5mC]*dA*dT*dG*dA*dG*d[5mC]*dT*dT*e[5mC]) be said to have % change in SGLT2 expression relative to saline at or above -70%?
Criterion not met

---

Exercise: for every item that follows, state its recorded % Inhib (PCSK9 mRNA).
Tested on: PCSK9 mRNA
Format: cell-based, human
Conditions: Hep3B cells, 100 nM, relative to untreated control cells; 0 = no reduction observed
Strand notation (5' to 3'): a small letter for the sugar, then the base; units joined by * are phosphorothioate-linked, units joined directly phosphodiester-linked; [ ] holds rarer units or linkages, { } end groups; capitals alone tell only the bases. e = 2'-O-(2-methoxyethyl) (MOE); [5mC] = 5-methylcytosine; d = 2'-deoxy (DNA)
Please answer in the form of a number followed by its unit of measurement.

% Inhib (PCSK9 mRNA) reported for this substance 400322 (eT*eT*d[5mC]*d[5mC]*dG*dA*dA*dT*dA*dA*dA*d[5mC]*eT*e[5mC]; antisense) [compound 400322] : 0%

% Inhib (PCSK9 mRNA) reported for this substance 400323 (eG*e[5mC]*d[5mC]*dA*dG*dG*dG*dG*d[5mC]*dA*dG*d[5mC]*eA*eG; antisense) [compound 400323] : 0%

% Inhib (PCSK9 mRNA) reported for this substance 400355 (antisense eA*eG*dA*d[5mC]*dA*d[5mC]*d[5mC]*d[5mC]*dT*d[5mC]*dA*d[5mC]*e[5mC]*e[5mC]) [compound 400355] : 0%

% Inhib (PCSK9 mRNA) reported for this substance 400324 (eG*eA*dG*dT*dA*dG*dA*dG*dG*d[5mC]*dA*dG*eG*e[5mC]; antisense) [compound 400324] : 7%

% Inhib (PCSK9 mRNA) reported for this substance 400314 (eG*eT*dG*d[5mC]*d[5mC]*d[5mC]*dT*dT*d[5mC]*d[5mC]*d[5mC]*dT*eT*eG; antisense) [compound 400314] : 26%

% Inhib (PCSK9 mRNA) reported for this substance 400362 (antisense e[5mC]*eG*dG*d[5mC]*dA*dG*d[5mC]*dA*dG*dA*dT*dG*eG*e[5mC]) [compound 400362] : 16%

---

Test system: PCSK9 mRNA
Assay type: cell-based, human
Conditions: Hep3B cells, 100 nM, relative to untreated control cells; 0 = no reduction observed
Strand notation (5' to 3'): a small letter for the sugar, then the base; units joined by * are phosphorothioate-linked, units joined directly phosphodiester-linked; [ ] holds rarer units or linkages, { } end groups; capitals alone tell only the bases. e = 2'-O-(2-methoxyethyl) (MOE); [5mC] = 5-methylcytosine; d = 2'-deoxy (DNA)
MEASURED_ENDPOINT: % Inhib (PCSK9 mRNA) (%)
Dear colleague, please return just the value in %, with no unit written.

% Inhib (PCSK9 mRNA) reported for this substance 400369 (antisense e[5mC]*e[5mC]*dG*dG*d[5mC]*dT*d[5mC]*d[5mC]*dG*dG*d[5mC]*dA*eG*e[5mC]) [compound 400369] : 0

% Inhib (PCSK9 mRNA) reported for this substance 400302 (antisense eG*eA*dT*dA*d[5mC]*dA*d[5mC]*d[5mC]*dT*d[5mC]*d[5mC]*dA*e[5mC]*e[5mC]) [compound 400302] : 0

% Inhib (PCSK9 mRNA) reported for this substance 400358 (antisense eA*eT*dG*dG*d[5mC]*dA*dG*d[5mC]*dA*dG*dG*dA*eA*eG) [compound 400358] : 12

% Inhib (PCSK9 mRNA) reported for this substance 400345 (eT*eG*dG*dG*dT*dG*d[5mC]*dT*dG*dG*dG*dG*eG*eG; antisense) [compound 400345] : 0

% Inhib (PCSK9 mRNA) reported for this substance 400352 (antisense e[5mC]*eA*d[5mC]*d[5mC]*d[5mC]*dT*d[5mC]*dA*d[5mC]*d[5mC]*d[5mC]*d[5mC]*e[5mC]*eA) [compound 400352] : 29

% Inhib (PCSK9 mRNA) reported for this substance 400365 (antisense e[5mC]*eT*d[5mC]*d[5mC]*dG*dG*d[5mC]*dA*dG*d[5mC]*dA*dG*eA*eT) [compound 400365] : 25

---

Exercise: for every item that follows, state its recorded % Inhibition of PCSK9.
Test system: PCSK9 mRNA
Test: Dose-dependent inhibition of PCSK9 in Hep3B cells with EC50 (Example 19, Table 76)
Format: cell-based, human
Details: 80 nM
Procedure: Short antisense compounds targeted to a PCSK9 nucleic acid were tested in a dose response experiment Hep3B cells. After the treatment period, RNA was isolated from the cells and PCSK9 mRNA levels were measured by quantitative real-time PCR, as described herein. PCSK9 mRNA levels were normalized to cyclophilin mRNA levels, as measured by real-time PCR using a cyclophilin-specific primer probe set. Results are presented as percent inhibition of PCSK9, relative to untreated control cells. […]
Strand notation (5' to 3'): a small letter for the sugar, then the base; units joined by * are phosphorothioate-linked, units joined directly phosphodiester-linked; [ ] holds rarer units or linkages, { } end groups; capitals alone tell only the bases. e = 2'-O-(2-methoxyethyl) (MOE); [5mC] = 5-methylcytosine; d = 2'-deoxy (DNA)
Dear colleague, please return just the value in %, with no unit written.

% Inhibition of PCSK9 reported for this substance 400309 (e[5mC]*e[5mC]*d[5mC]*dG*dG*d[5mC]*d[5mC]*dG*d[5mC]*dT*dG*dA*e[5mC]*e[5mC]; antisense) [compound 400309] : 72

% Inhibition of PCSK9 reported for this substance 400353 (antisense eA*e[5mC]*dA*d[5mC]*d[5mC]*d[5mC]*dT*d[5mC]*dA*d[5mC]*d[5mC]*d[5mC]*e[5mC]*e[5mC]) [compound 400353] : 54

% Inhibition of PCSK9 reported for this substance 400327 (eG*eT*d[5mC]*d[5mC]*d[5mC]*d[5mC]*dA*dA*dA*dG*dT*d[5mC]*e[5mC]*e[5mC]; antisense) [compound 400327] : 43

% Inhibition of PCSK9 reported for this substance 400307 (e[5mC]*eG*dG*d[5mC]*d[5mC]*dG*d[5mC]*dT*dG*dA*d[5mC]*d[5mC]*eA*e[5mC]; antisense) [compound 400307] : 92

% Inhibition of PCSK9 reported for this substance 400308 (e[5mC]*e[5mC]*dG*dG*d[5mC]*d[5mC]*dG*d[5mC]*dT*dG*dA*d[5mC]*e[5mC]*eA; antisense) [compound 400308] : 77
